Tested on: Staphylococcus aureus
Experiment: Antibacterial activity against methicillin-resistant Staphylococcus aureus clinical isolate after 20 hrs by broth dilution method
Type: functional
condition met if MIC is below 20 µg/mL. condition not met if not; exact matches included in condition not met.

Answered examples (4):
structure_as_smiles | tested_on | qualitative_label
CC(C)C[C@@H]1NC(=O)[C@H](CC(N)=O)NC(=O)[C@H](CC(N)=O)NC(=O)[C@@H](Cc2ccccc2)NC(=O)[C@H](Cc2ccccc2)NC(=O)[C@@H]2CCCN2C(=O)[C@@H](Cc2ccccc2)NC(=O)[C@H](CC(C)C)NC(=O)[C@H](CCCN)NC(=O)[C@H](C(C)C)NC1=O | Staphylococcus aureus | condition met
CC(C)C[C@@H]1NC(=O)[C@H](CC(N)=O)NC(=O)[C@H](CC(N)=O)NC(=O)[C@H](Cc2ccccc2)NC(=O)[C@H](Cc2ccc(O)cc2)NC(=O)[C@@H]2CCCN2C(=O)[C@@H](Cc2ccccc2)NC(=O)[C@H](CC(C)C)NC(=O)[C@H](CCCN)NC(=O)[C@H](C(C)C)NC1=O | Staphylococcus aureus | condition met
CC(C)C[C@@H]1NC(=O)[C@H](CC(N)=O)NC(=O)[C@H](CC(N)=O)NC(=O)[C@@H](Cc2ccccc2)NC(=O)[C@H](Cc2ccc(O)cc2)NC(=O)[C@@H]2CCCN2C(=O)[C@@H](Cc2ccccc2)NC(=O)[C@H](CC(C)C)NC(=O)[C@H](CCCN)NC(=O)[C@H](C(C)C)NC1=O | Staphylococcus aureus | condition met
CC(C)C[C@@H]1NC(=O)[C@H](CC(=O)O)NC(=O)[C@H](CC(N)=O)NC(=O)[C@@H](Cc2ccccc2)NC(=O)[C@H](Cc2ccccc2)NC(=O)[C@@H]2CCCN2C(=O)[C@@H](Cc2ccc(O)cc2)NC(=O)[C@H](CC(C)C)NC(=O)[C@H](CCCN)NC(=O)[C@H](C(C)C)NC1=O | Staphylococcus aureus | condition not met

Query: # check: MIC < 20 µg/mL for `CC(C)C[C@@H]1NC(=O)[C@H](CC(N)=O)NC(=O)[C@H](CC(N)=O)NC(=O)[C@@H](Cc2ccccc2)NC(=O)[C@H](Cc2ccccc2)NC(=O)[C@@H]2CCCN2C(=O)[C@@H](Cc2ccc(O)cc2)NC(=O)[C@H](CC(C)C)NC(=O)[C@H](CCCN)NC(=O)[C@H](C(C)C)NC1=O`
Response: condition met

Query: For this molecule, is MIC lower than 20 µg/mL? `CC(C)C[C@@H]1NC(=O)[C@H](CCCN)NC(=O)[C@H](C(C)C)NC(=O)[C@H](CC(C)C)NC(=O)[C@H](CC(N)=O)NC(=O)[C@H](CC(N)=O)NC(=O)[C@@H](Cc2ccccc2)NC(=O)[C@H](Cc2ccc(O)cc2)NC(=O)[C@@H]2CCCN2C(=O)[C@H](Cc2ccccc2)NC1=O`
Response: condition not met

Query: Does this molecule meet the criterion MIC < 20 µg/mL? `CC(C)C[C@@H]1NC(=O)[C@H](CCCN)NC(=O)[C@H](C(C)C)NC(=O)[C@H](CC(C)C)NC(=O)[C@H](CC(N)=O)NC(=O)[C@H](CC(N)=O)NC(=O)[C@H](Cc2ccccc2)NC(=O)[C@H](Cc2ccc(O)cc2)NC(=O)[C@@H]2CCCN2C(=O)[C@H](Cc2ccccc2)NC1=O`
Response: condition not met

Data origin: ChEMBL document CHEMBL1153147
